Target desc: T1, recombinant human CTLA4 protein with human IgG1 Fc tag at the C-terminus (Acro biosystems, Cat#CT4-H5255) (human, UniProt P16410 37-162)
T1 construct: bought protein; also called human CTLA4-Fc; CTLA4-Fc; not shown: human IgG1 Fc tag at the C-terminus
T1 sequence (looked up): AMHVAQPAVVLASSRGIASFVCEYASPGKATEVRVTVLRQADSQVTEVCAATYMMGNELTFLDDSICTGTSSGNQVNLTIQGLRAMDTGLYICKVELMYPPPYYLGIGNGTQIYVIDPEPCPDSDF
Assay details: capture ELISA (plate coated with goat anti-human IgG F(ab')2 per paragraph 181), biotin human CTLA4-Fc, streptavidin-HRP, OD(450-630)
Procedure: Plates were washed once with wash buffer (PBS+0.05% v/v Tween-20, PBST) and then blocked with 200 µl/well blocking buffer (PBST with 5% w/v non-fatty milk) for 2 hours at 37° C. […] The reaction was stopped in 15 minutes at room temperature with 50 µl/well 1M H₂SO₄, and the absorbance of the each well was read on a microplate reader using dual wavelength mode with 450 nm for TMB and 630 nm as the reference wavelength, then the OD (450-630) values were plotted against antibody concentration. […]
Quantity measured: pEC50
Scale: negative log10 of molar concentration, which is what pEC50 denotes.

Below, each entry is followed by its recorded pEC50 result.
binder="chimeric C1D1 anti-CTLA4 antibody (antibody, human IgG4 S228P, kappa, V domains shown, mouse variable domains on human IgG4/kappa, made in 293F cells) VH: EVKLDETGGGLVQPGRPLKLSCVASGFTFSDNWMNWVRQSPEKGLEWVAQIRNKPYNYETYYSDSVKGRFTISRDDSKSSVYLQMNNLRVEDMGIYYCTGGMDYWGQGTSVTVSS VL: DIQMTQSPASLSASVGETVTITCGASEIIYGALNWYQQKQGKSPQLLIYGATNLADGMSSRFSGSGSGRQYSLKISSLHPDDAATYYCQKILSPPPWTFGGGTKLEIKR" test_value=9.81
binder="huC1D1-V8 (antibody, human IgG4 S228P, kappa, V domains shown, humanized IgG4/kappa; cell supernatant on Octet, purified antibody in Biacore, ELISA, FACS and the functional assay; also called hu CTLA4 C1D1-V8) VH: EVQLVESGGGLVQPGRSLRLSCTASGFTFSDNWMNWVRQAPGKGLEWVGQIRNKPYNYETYYSDSVKGRFTISRDDSKSIAYLQMNSLKTEDTAVYYCTGGMDYWGQGTTVTVSS VL: DIQMTQSPSSLSASVGDRVTITCGASEIIYGALNWYQQKPGKSPKLLIYGATNLADGVPSRFSGSGSGTDFTLTISSLQPEDVATYYCQKILSPPPWTFGGGTKVEIKR" test_value=9.13

Okay, next one:
Ask: I am curious: what pEC50 value has been reported for chimeric D1D5 anti-CTLA4 antibody (antibody, human IgG4 S228P, kappa, V domains shown, mouse variable domains on human IgG4/kappa, made in 293F cells) VH: EVKLVESGGGLVKPGGSLKLSCAASGFTFSDYGMAWVRQAPGKGPEWVAFISNLAYSVYYADTETGRFTISREDAKNTLYLEMSSLRSEDTAMYYCARSGLPYAMDYWGQGTSVTVSS VL: DIQMTQTTSSLSASLGDRVTISCRASQDISNYLNWYQQKPDGTVKLLIYYISRLHSGVPSRFSGSGSGTDFSLTISNLEQEDIATYFCQQGRMLPWTFGGGTRLEIKR ?
Reply: 9.24
